Values from patent US20260083851A1

biological target: ASGPR (Homo sapiens, UniProt P07306); construct: biotin (biotinylated); assay: ASGPR SPR binding; settings: second table, read-out: ASGPR KD
Sequence (P07306 whole entry): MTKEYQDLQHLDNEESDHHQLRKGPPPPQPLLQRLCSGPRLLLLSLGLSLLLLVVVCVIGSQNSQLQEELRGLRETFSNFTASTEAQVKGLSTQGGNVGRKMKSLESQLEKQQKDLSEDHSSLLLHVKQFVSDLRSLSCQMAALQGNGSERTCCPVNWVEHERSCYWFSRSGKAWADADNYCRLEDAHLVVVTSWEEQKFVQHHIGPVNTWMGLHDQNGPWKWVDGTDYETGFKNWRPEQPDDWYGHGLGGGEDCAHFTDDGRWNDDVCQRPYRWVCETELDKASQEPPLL
pKd: −log10 of the molar value.
parameter measured: pKd

{"compound": "COC1OC(Cn2cc(CCCC(=O)NC3CC4C(=O)NC(CC(=O)O)C(=O)NC5CSSCC(NC(=O)C(Cc6c[nH]c7ccccc67)NC(=O)C(C(C)C)NC(=O)C(CC(C)C)NC(=O)C(CCC(=O)O)NC(=O)CNC(=O)C(CC(C)C)NC(=O)C(Cc6cnc[nH]6)NC(=O)C(Cc6c[nH]c7ccccc67)NC(=O)C(C)NC5=O)C(=O)NC(C(C)O)C(=O)N5CCCC5C(=O)N4C3)nn2)C(O)C(O)C1NC(C)=O (stereo not drawn) [compound 79]", "assay value": "< 6.00"}
{"compound": "CNC(=O)CCC1NC(=O)CNC(=O)C(CC(C)C)NC(=O)C(Cc2cnc[nH]2)NC(=O)C(Cc2c[nH]c3ccccc23)NC(=O)C(C)NC(=O)C2CSSCC(NC(=O)C(Cc3c[nH]c4ccccc34)NC(=O)C(C(C)C)NC(=O)C(CC(C)C)NC1=O)C(=O)NC(C(C)O)C(=O)N1CCCC1C(=O)N1CC(N)CC1C(=O)NC(CC(=O)O)C(=O)N2 (stereo not drawn) [compound 64]", "assay value": "> 7.00"}
{"compound": "CC(C)CC1NC(=O)C(Cc2cnc[nH]2)NC(=O)C(Cc2c[nH]c3ccccc23)NC(=O)C(C)NC(=O)C2CSSCC(NC(=O)C(Cc3c[nH]c4ccccc34)NC(=O)C(C(C)C)NC(=O)C(CC(C)C)NC(=O)C(CCC(=O)O)NC(=O)CNC1=O)C(=O)NC(C(C)O)C(=O)N1CCCC1C(=O)N1CC(NC(=O)CCCc3cn(CCCCCC(=O)NC(COCCC(=O)NCCOCC4OCC(Nc5nccc(C(F)(F)F)n5)C(O)C4O)COCCC(=O)NCCOCC4OCC(Nc5nccc(C(F)(F)F)n5)C(O)C4O)nn3)CC1C(=O)NC(CC(=O)O)C(=O)N2 (stereo not drawn) [compound 76]", "assay value": "> 7.00"}
{"compound": "CC(C)CC1NC(=O)C(Cc2cnc[nH]2)NC(=O)C(Cc2c[nH]c3ccccc23)NC(=O)C(C)NC(=O)C2CSSCC(NC(=O)C(Cc3c[nH]c4ccccc34)NC(=O)C(C(C)C)NC(=O)C(CC(C)C)NC(=O)C(CCC(=O)O)NC(=O)CNC1=O)C(=O)NC(C(C)O)C(=O)N1CCCC1C(=O)N1CC(NC(=O)CC(=O)NCC3OCC(Nc4cncc(C(F)(F)F)n4)C(O)C3O)CC1C(=O)NC(CC(=O)O)C(=O)N2 (stereo not drawn) [compound 38]", "assay value": "> 7.00"}
{"compound": "CC(C)CC1NC(=O)C(Cc2cnc[nH]2)NC(=O)C(Cc2c[nH]c3ccccc23)NC(=O)C(C)NC(=O)C2CSSCC(NC(=O)C(Cc3c[nH]c4ccccc34)NC(=O)C(C(C)C)NC(=O)C(CC(C)C)NC(=O)C(CCC(=O)O)NC(=O)CNC1=O)C(=O)NC(C(C)O)C(=O)N1CCCC1C(=O)N1CC(NC(=O)C3CCC(C(=O)NCC4OCC(Nc5cncc(C(F)(F)F)n5)C(O)C4O)CC3)CC1C(=O)NC(CC(=O)O)C(=O)N2 (stereo not drawn) [compound 45]", "assay value": "6.30 to 7.00"}
{"compound": "CC(C)C[C@@H]1NC(=O)[C@H](Cc2cnc[nH]2)NC(=O)[C@H](Cc2c[nH]c3ccccc23)NC(=O)[C@H](C)NC(=O)[C@@H]2CSSC[C@H](NC(=O)[C@H](Cc3c[nH]c4ccccc34)NC(=O)[C@H](C(C)C)NC(=O)[C@H](CC(C)C)NC(=O)[C@H](CCC(=O)O)NC(=O)CNC1=O)C(=O)N[C@@H]([C@@H](C)O)C(=O)N1CCC[C@@H]1C(=O)N1C[C@H](NC(=O)COCCOCC(=O)NC[C@H]3OC[C@H](Nc4cncc(C(F)(F)F)n4)[C@@H](O)[C@H]3O)C[C@H]1C(=O)N[C@@H](CC(=O)O)C(=O)N2 [compound 96]", "assay value": "> 7.00"}
{"compound": "CC(C)CC1NC(=O)C(Cc2cnc[nH]2)NC(=O)C(Cc2c[nH]c3ccccc23)NC(=O)C(C)NC(=O)C2CSSCC(NC(=O)C(Cc3c[nH]c4ccccc34)NC(=O)C(C(C)C)NC(=O)C(CC(C)C)NC(=O)C(CCC(=O)O)NC(=O)CNC1=O)C(=O)NC(C(C)O)C(=O)N1CCCC1C(=O)N1CC(NC(=O)COc3ccc(CC(=O)NCC4OCC(Nc5cncc(C(F)(F)F)n5)C(O)C4O)cc3)CC1C(=O)NC(CC(=O)O)C(=O)N2 (stereo not drawn) [compound 37]", "assay value": "> 7.00"}
{"compound": "CC(C)CC1NC(=O)C(Cc2cnc[nH]2)NC(=O)C(Cc2c[nH]c3ccccc23)NC(=O)C(C)NC(=O)C2CSSCC(NC(=O)C(Cc3c[nH]c4ccccc34)NC(=O)C(C(C)C)NC(=O)C(CC(C)C)NC(=O)C(CCC(=O)O)NC(=O)CNC1=O)C(=O)NC(C(C)O)C(=O)N1CCCC1C(=O)N1CC(NC(=O)c3ccc(N4CCC(CN5CCN(CC6OCC(Nc7cncc(C(F)(F)F)n7)C(O)C6O)CC5)CC4)nn3)CC1C(=O)NC(CC(=O)O)C(=O)N2 (stereo not drawn) [compound 42]", "assay value": "> 7.00"}
{"compound": "CC(C)CC1NC(=O)C(Cc2cnc[nH]2)NC(=O)C(Cc2c[nH]c3ccccc23)NC(=O)C(C)NC(=O)C2CSSCC(NC(=O)C(Cc3c[nH]c4ccccc34)NC(=O)C(C(C)C)NC(=O)C(CC(C)C)NC(=O)C(CCC(=O)O)NC(=O)CNC1=O)C(=O)NC(C(C)O)C(=O)N1CCCC1C(=O)N1CC(NC(=O)CCCc3cn(CC4OCC(Nc5cncc(C(F)(F)F)n5)C(O)C4O)nn3)CC1C(=O)NC(CC(=O)O)C(=O)N2 (stereo not drawn) [compound 78]", "assay value": "> 7.00"}
